Some compounds, each annotated with its measured IC50.
Tested on: K-562 cells
experiment notes: Cell growth inhibition assay, K-562
Type: cell-based
condition summary: Homo sapiens, K562; K-562 leukemia cells; 3-4 days; read-out: IC50 (uM conc. inhibiting growth of the cells by 50%)
# value in µM; strip the unit string

| compound | IC50 / µM |
| --- | --- |
| CCCCCCCCCCCCCCCC[N+](C)(C)CCCCCC(=O)[O-] [16-5B] | 5.5 |

Please find the next compound below.
# input // query IC50 value for entry CCCCCCCCCCCCCCCC[N+](C)(C)CCCS(=O)(=O)[O-] [16-3S]
# output 15

* * *

Test system: R6 cells
experiment notes: Cell growth inhibition assay, R6
Assay type: cell-based, rat
condition summary: Fibroblast; R6 rat fibroblasts; 3-4 days; read-out: IC50 (uM conc. inhibiting growth of the cells by 50%)
measurement label: IC50 (µM)
# value in µM; strip the unit string

Solved cases below.
| compound | value observed |
| --- | --- |
| CCCCCCCCCCCC[N+](C)(C)CCCS(=O)(=O)[O-] [12-3S] | 45 |
| CCCCCCCCCCCCCCCC[N+](C)(C)CCCCCC(=O)[O-] [16-5B] | 18 |
| CCCCCCCCCCCC[N+](C)(C)CCCCCC(=O)[O-] [12-5B] | 78 |
| CCCCCCCCCCCCCCCC[N+](C)(C)CCCS(=O)(=O)[O-] [16-3S] | 14 |

Please find the next compound below.
# input // query IC50 value for entry CCCCCCCC[N+](C)(C)CCCS(=O)(=O)[O-] [8-3S]
# output 78

* * *

Test system: U-937 cells
experiment notes: Cell growth inhibition assay, U-937
Type: cell-based
condition summary: Homo sapiens, U-937, read-out: IC50 (uM conc. inhibiting growth of the cells by 50%)
measurement label: IC50

| compound string | measurement label | value observed |
| --- | --- | --- |
| CCCCCCCCCCCC[N+](C)(C)CC(=O)[O-] | IC50 | > 100 µM |

Please find the next compound below.
# input // query IC50 value for entry `CCCCCCCCCCCCCCCC[N+](C)(C)CC(=O)[O-]`
# output 23 µM

* * *

Test system: ten cell lines
experiment notes: Cell growth inhibition assays, panel of cell lines
Type: cell-based, human, rat, mouse and bovine
condition summary: all / all other cell lines tested; read-out: IC50 over the cell lines tested (range or bound)
Some compounds, each annotated with its measured IC50.

| compound | IC50 |
| --- | --- |
| CCCCCCCC[N+](C)(C)CCCS(=O)(=O)[O-] [8-3S] | > 100 µM |

Please find the next compound below.
# input // query IC50 value for entry CCCCCCCCCCCCCCCC[N+](C)(C)CCCCCC(=O)[O-] [16-5B]
# output 0.5 to 53 µM

* * *

Tested on: CPA-5 cells
experiment notes: Cell growth inhibition assay, CPA-5 endothelial cells
Type: cell-based, bovine
condition summary: Bos taurus, CPA-5 bovine aortic endothelial cells, 3-4 days, read-out: IC50 (uM conc. inhibiting growth of the cells by 50%)
measurement label: IC50 (µM)
# value in µM; strip the unit string

Solved cases below.
| compound | system | measurement label | value observed |
| --- | --- | --- | --- |
| CCCCCCCCCCCCCCCC[N+](C)(C)CCCCCC(=O)[O-] [16-5B] | CPA-5 cells | IC50 | 18 |
| CCCCCCCCCCCC[N+](C)(C)CCCS(=O)(=O)[O-] [12-3S] | CPA-5 cells | IC50 | 70 |

Please find the next compound below.
# input // query IC50 value for entry CCCCCCCCCCCCCCCC[N+](C)(C)CCCS(=O)(=O)[O-] [16-3S]
# output 17

Hello, the source for this data is patent US5545667A, in case you need it.
